molecular target: Cannabinoid receptor 1 (Homo sapiens, UniProt P21554); assay: Evaluated for binding affinity towards human Cannabinoid receptor 1 at a concentration of 20 uM
Sequence (P21554 whole entry): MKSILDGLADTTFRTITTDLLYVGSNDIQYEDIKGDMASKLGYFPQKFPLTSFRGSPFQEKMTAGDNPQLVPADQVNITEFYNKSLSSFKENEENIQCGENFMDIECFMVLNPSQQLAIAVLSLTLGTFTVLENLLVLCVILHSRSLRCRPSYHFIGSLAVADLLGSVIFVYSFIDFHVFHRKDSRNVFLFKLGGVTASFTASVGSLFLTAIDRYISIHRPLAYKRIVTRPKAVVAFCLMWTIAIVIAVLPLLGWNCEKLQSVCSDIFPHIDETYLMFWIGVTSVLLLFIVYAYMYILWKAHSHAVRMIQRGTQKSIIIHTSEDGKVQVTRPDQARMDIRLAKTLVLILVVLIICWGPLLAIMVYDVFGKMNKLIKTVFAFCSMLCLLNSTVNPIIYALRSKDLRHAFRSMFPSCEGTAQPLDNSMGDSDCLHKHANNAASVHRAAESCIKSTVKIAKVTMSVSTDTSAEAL
PARAMETER_MEASURED: inhibition (%)

COMPOUND_SMILES | inhibition (%)
CN(C)CCNC(=O)c1nc(-c2ccc(Cl)cc2Cl)n(-c2ccc(Cl)cc2)n1 | 49
Cc1c(C(=O)NCCO)nn(-c2ccc(Cl)cc2Cl)c1-c1ccc(Cl)cc1 | 69

P = O=C(NN1CCCCCC1)c1nc(-c2ccc(Cl)cc2)n(-c2ccc(Cl)cc2Cl)n1
Q = Cc1c(C(=O)NCCN(C)C)nn(-c2ccc(Cl)cc2Cl)c1-c1ccc(Cl)cc1
Task: Between P and Q , which one has the lower reported inhibition value? Use the label to indicate which entry you chose.
Output: P
(P: 43%, Q: 70%)

====

pKi: −log10 of the molar value.
Cannabinoid receptor 1 (Homo sapiens) measurements of pKi, listed per entry.
PARAMETER_MEASURED: pKi

Take a look at these entries with their results.
COMPOUND | pKi
C#Cc1c(C(=O)NN2CC3CCCC3C2)nc(-c2ccc(Cl)cc2Cl)n1-c1ccc(Cl)cc1 (stereo not given) | 6.11
CC1CCC(NC(=O)c2nc(-c3ccc(Cl)cc3Cl)n(-c3ccc(Cl)cc3)n2)CC1 (stereo not given) | 7.03
O=C(NN1CC2CCCC2C1)c1nc(-c2ccc(Cl)cc2Cl)n(-c2ccc(Cl)cc2)c1Br (stereo not given) | 7.96

A = Cc1c(C(=O)NC2CCCCC2)nn(-c2ccc(Cl)cc2Cl)c1-c1ccc(Cl)cc1
B = N#Cc1c(C(=O)NN2CC3CCCC3C2)nc(-c2ccc(Cl)cc2Cl)n1-c1ccc(Cl)cc1 (stereo not given)
Task: Which has the smaller recorded pKi, A or B ? Give the label of your selection.
Output: A
(A: 7.38, B: 8.05)

====

target: Cannabinoid receptor 1 (Homo sapiens, UniProt P21554); assay: Evaluated for binding affinity towards human Cannabinoid receptor 1
pKi: −log10 of the molar value.
PARAMETER_MEASURED: pKi

Examples from the recorded data:
COMPOUND | PARAMETER_MEASURED | MEASURED_RESULT
Cc1c(C(=O)N(C)C2CCCCC2)nn(-c2ccc(Cl)cc2Cl)c1-c1ccc(Cl)cc1 | pKi | 7.00
O=C(NN1CCCCC1)c1cn(-c2ccc(Cl)cc2)c(-c2ccc(Cl)cc2Cl)n1 | pKi | 7.07
O=C(NC1CCCCC1)c1cn(-c2ccc(Cl)cc2)c(-c2ccc(Cl)cc2Cl)n1 | pKi | 7.32
CC(NC(=O)c1nc(-c2ccc(Cl)cc2Cl)n(-c2ccc(Cl)cc2)n1)c1ccc(Cl)cc1 (centres undefined) | pKi | 7.18

a = O=C(NN1CCCCCC1)c1cn(-c2ccc(Cl)cc2)c(-c2ccc(Cl)cc2Cl)n1
b = COc1cc(Cl)ccc1-c1nc(C(=O)NN2CC3CCCC3C2)nn1-c1ccc(Cl)cc1Cl (centres undefined)
c = Cc1c(C(=O)NC(C)c2ccc(Cl)cc2)nc(-c2ccc(Cl)cc2Cl)n1-c1ccc(Cl)cc1 (centres undefined)
Task: Task field, ranking: reported pKi, descending order. Put the labels in the requested order and list them out.
Output: c, a, b

// data source = ChEMBL document CHEMBL1147585
